Value source: patent US20240279318A1

Below, each entry is listed alongside its reported Affinity increase.
Target: T1, AFP158/HLA-A*02:01 complex (human)
T1 construct: flowed over the chip in SPR; also called AFP158 pro
Assay: SPR, KD ratio to AS170036 VL1VH1;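 note: crude scFv captured on a sensor chip, peptide–HLA complex passed over at several concentrations, association then buffer dissociation, KD derived from on- and off-rates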
// return numeric value only (unit: fold, not printed)

{"columns": ["Binder", "Affinity increase [fold]"],
 "data": [
  ["LY93D (scFv, AS170036 VL1VH1 scFv mutein) scFv: QSALTQPRSVSGSPGQSVTISCAGTSSDVGSENYVSWYQQHPGKAPKLMIYQVNKRASGVPDRFSGSKSGNTASLTISGLQAEDEADYYCASDRSSDHNIVFGGGTKLTVLGGGGSGGGGSGGGGSEVQLVESGGGLVQPGGSLRLSCAASGFTFSSYAMSWVRQAPGKGLEWVSTINSGTGSPYYADSVKGRFTISRDNSKNTLYLQMNSLRAEDTAVYYCAKNFFDGSWFLGPPAMDYWGQGTLVTVSSHHHHHH", 0.2]
]}

So, LD97Q (scFv, AS170036 VL1VH1 scFv mutein) scFv: QSALTQPRSVSGSPGQSVTISCAGTSSDVGSENYVSWYQQHPGKAPKLMIYQVNKRASGVPDRFSGSKSGNTASLTISGLQAEDEADYYCASYRSSQHNIVFGGGTKLTVLGGGGSGGGGSGGGGSEVQLVESGGGLVQPGGSLRLSCAASGFTFSSYAMSWVRQAPGKGLEWVSTINSGTGSPYYADSVKGRFTISRDNSKNTLYLQMNSLRAEDTAVYYCAKNFFDGSWFLGPPAMDYWGQGTLVTVSSHHHHHH ? Its Affinity increase was 0.4
